Tested on: Plasmodium falciparum
Assay: Antiplasmodial activity against chloroquine-sensitive Plasmodium falciparum F-32 Tanzania assessed as inhibition of parasitemia after 3 days
Assay type: functional, organism-based
Settings: 72 h
pIC50: −log10 of the molar value.
property-measured: pIC50

compound	property-measured	relation-symbol	numeric-result
Oc1cc2c(cc1O)[C@@]13C=C[C@@H](O)C[C@@H]1N(C[C@H]3O)C2O (stereo partly drawn)	pIC50	=	4.14
C1=C[C@@]23c4cc5c(cc4CN4C[C@H]2O[C@@H]1C[C@H]43)OCO5	pIC50	=	4.03
CCN(C=O)Cc1cc2c(cc1-c1ccc(O)cc1)OCO2	pIC50	<	4.00
CO[C@@H]1C=C[C@@]23c4cc5c(cc4C(OC(=O)C(C)C)N(C[C@H]2OC(=O)C(C)C)[C@H]3C1)OCO5 (stereo partly drawn)	pIC50	=	4.28
CO[C@@H]1C=C[C@@]23c4cc5c(cc4C(OC(C)=O)N(C[C@H]2OC(C)=O)[C@H]3C1)OCO5 (stereo partly drawn)	pIC50	=	4.28
CO[C@@H]1C=C[C@@]23c4cc5c(cc4[C@@H](O)N(C[C@H]2O)[C@H]3C1)OCO5	pIC50	=	5.92
COC1c2cc3c(cc2[C@@]24C=C[C@@H](OC)C[C@@H]2N1C[C@H]4O)OCO3 (stereo partly drawn)	pIC50	=	4.12
CC(=O)O[C@@H]1C=C[C@@]23c4cc5c(cc4CN(C[C@H]2OC(C)=O)[C@H]3C1)OCO5	pIC50	<	4.00
CO[C@@H]1C=C[C@@]23c4cc5c(cc4C[N+]([O-])(C[C@H]2O)[C@H]3C1)OCO5	pIC50	<	4.00
O=C(O[C@@H]1C=C[C@@]23c4cc5c(cc4CN(C[C@H]2OC(=O)c2cccnc2)[C@H]3C1)OCO5)c1cccnc1	pIC50	=	6.10
O[C@@H]1C=C[C@@]23c4cc5c(cc4CN(C[C@H]2O)[C@H]3C1)OCO5	pIC50	=	4.88
CO[C@H]1C[C@@H]2N3Cc4cc5c(cc4[C@@]2([C@H](O)C3)[C@@H](Br)[C@@H]1O)OCO5	pIC50	=	4.14
COC(C(=O)O[C@@H]1C=C[C@@]23c4cc5c(cc4CN(C[C@H]2OC(=O)C(OC)c2ccccc2)[C@H]3C1)OCO5)c1ccccc1 (stereo partly drawn)	pIC50	=	5.29
CO[C@H]1C[C@@H]2N3Cc4cc5c(cc4[C@@]2([C@H](O)C3)[C@@H](Br)[C@@H]1Br)OCO5	pIC50	=	5.19
O[C@@H]1C=C[C@]23CCN(Cc4cc5c(cc42)OCO5)[C@H]3C1	pIC50	=	5.14
CO[C@@H]1C=C[C@@]23c4cc5c(cc4CN(C[C@H]2OC(=O)c2ccc(Br)cc2)[C@H]3C1)OCO5	pIC50	=	4.36
CO[C@@H]1C=C[C@]23c4cc5c(cc4CN([C@H]2C1)[C@H]1O[C@H]13)OCO5	pIC50	=	5.80
OC1c2cc3c(cc2[C@@]24C=C[C@H]5C[C@@H]2N1C[C@H]4O5)OCO3 (stereo partly drawn)	pIC50	=	4.07
CN(C=O)Cc1cc2c(cc1-c1ccc(O)cc1)OCO2	pIC50	=	4.13
CO[C@@H]1C=C[C@@]23c4cc5c(cc4CN(C[C@@H]2O)[C@H]3C1)OCO5 [(+)-HAEMANTHAMINE]	pIC50	=	5.89
CO[C@H]1C[C@@H]2N3Cc4cc5c(cc4[C@@]2([C@H](O)C3)[C@@H](O)[C@@H]1Br)OCO5	pIC50	=	4.20
CO[C@@H]1CC[C@@]23c4cc5c(cc4CN(C[C@H]2O)[C@H]3C1)OCO5	pIC50	=	5.00
COc1cc2c(cc1O)CN1CC[C@@]23C=CC(O)C[C@H]13 (stereo partly drawn)	pIC50	=	4.04
CO[C@@H]1C=C[C@@]23c4cc5c(cc4CN(C[C@H]2OC(=O)c2cccnc2)[C@H]3C1)OCO5	pIC50	=	4.29
CO[C@@H]1C=C[C@@]23c4cc5c(cc4CN(C[C@H]2OC(=O)C(C)C)[C@H]3C1)OCO5	pIC50	=	4.25
O=C(O[C@@H]1C=C[C@@]23c4cc5c(cc4CN(C[C@H]2OC(=O)c2ccc(Br)cc2)[C@H]3C1)OCO5)c1ccc(Br)cc1	pIC50	=	5.52
CO[C@@H]1C=C[C@@]23c4cc5c(cc4CN(C[C@H]2OC(C)=O)[C@H]3C1)OCO5	pIC50	=	4.12
Oc1cc2c(cc1O)[C@@]13C=C[C@@H](O)C[C@@H]1N(C2)C[C@H]3O	pIC50	=	4.87

====

Tested on: Plasmodium falciparum
Test: Antiplasmodial activity against chloroquine-sensitive Plasmodium falciparum F-32 Tanzania assessed as inhibition of parasitemia after 3 days
Format: functional, organism-based
Settings: 72 h
Hi! Just check whether IC50 is below 7 µM. Below gives Criterion met, equal or above gives Criterion not met.

compound	cat
CO[C@@H]1C=C[C@]23/C(=N/O)CN(Cc4cc5c(cc42)OCO5)[C@H]3C1	Criterion not met
CO[C@@H]1C=C[C@]23C(=O)CN(Cc4cc5c(cc42)OCO5)[C@H]3C1	Criterion not met
CO[C@@H]1C=C[C@@]2(c3cc4c(cc3C=O)OCO4)C(=O)C=N[C@H]2C1	Criterion not met
C=CC(=O)O[C@@H]1CN2Cc3cc4c(cc3[C@]13C=C[C@@H](OC)C[C@H]23)OCO4	Criterion not met
CO[C@@H]1C=C[C@@]23c4cc5c(cc4C(OC(=O)c4ccc(Br)cc4)N(C[C@H]2OC(=O)c2ccc(Br)cc2)[C@H]3C1)OCO5 (stereo partly drawn)	Criterion met
C=Cc1ccc(C(=O)O[C@@H]2CN3Cc4cc5c(cc4[C@]24C=C[C@@H](OC)C[C@H]34)OCO5)cc1	Criterion not met
